test system: SK-OV-3 ovarian; assay: NCI tumour cell line growth inhibition, 48 h
Item-by-item account of TGI
parameter: TGI (µM)

[[record]]
smiles_entry = "CCOC(=O)Nc1nc2cc(OCC)ccc2s1"
readout_qualifier = ">"
observed_value = 100

[[record]]
smiles_entry = "C=C(C)[C@@H]1CC[C@]2(CO)CC[C@]3(C)[C@H](CC[C@@H]4[C@@](C)(CCCN)[C@H](C(=C)C)CC[C@]43C)[C@@H]12"
readout_qualifier = "="
observed_value = 3.18

[[record]]
smiles_entry = "COc1cc2c(cc1O)CCN(C)[C@H]2Cc1ccc(Oc2c(O)c(OC)cc3c2C[C@H]2c4c(c(OC)c(OC)c(OC)c4-3)CCN2C)cc1"
readout_qualifier = "="
observed_value = 10.5

[[record]]
smiles_entry = "O=C1C(Cl)=C(c2ccc([N+](=O)[O-])cc2)C(=O)c2c(O)cccc21"
readout_qualifier = "="
observed_value = 8.64

[[record]]
smiles_entry = "Clc1ccc(-c2c(C3=NCCN3)nnn2-c2ccccc2)cc1"
readout_qualifier = ">"
observed_value = 100


====

system: 786-0 renal; experiment: NCI tumour cell line growth inhibition, 48 h
Item-by-item account of TGI
parameter: TGI (µM)

[[record]]
smiles_entry = "CN1c2ccccc2S(=O)(=O)n2c(CCc3ccccc3)nnc21"
readout_qualifier = ">"
observed_value = 100

[[record]]
smiles_entry = "COc1cc2c(cc1O)CCN(C)[C@H]2Cc1ccc(Oc2c(O)c(OC)cc3c2C[C@H]2c4c(c(OC)c(OC)c(OC)c4-3)CCN2C)cc1"
readout_qualifier = "="
observed_value = 9.4

[[record]]
smiles_entry = "COC(=O)c1cc(C)ccc1/C=C1\\Cc2c(C)cc(C)cc2C1=O"
readout_qualifier = "="
observed_value = 40.6

[[record]]
smiles_entry = "NNC(=O)Cn1ccnn1"
readout_qualifier = ">"
observed_value = 100


====

test system: EKVX NSCLC; assay: NCI tumour cell line growth inhibition, 48 h
parameter: TGI

[[record]]
smiles_entry = "CN1c2ccccc2S(=O)(=O)n2c(CCc3ccccc3)nnc21"
parameter = "TGI"
observed_value = "> 100 µM"

[[record]]
smiles_entry = "NNS(=O)(=O)c1cc(C(=O)O)cc(C(=O)O)c1"
parameter = "TGI"
observed_value = "> 100 µM"

[[record]]
smiles_entry = "CS(=O)(=O)NNS(=O)(=O)c1ccc(Cl)cc1"
parameter = "TGI"
observed_value = "> 100 µM"


====

test system: ACHN renal; experiment: NCI tumour cell line growth inhibition, 48 h; in the data active = GI50 below about 0.43 µM; inactive = the rest
Possible outcomes: active, inactive

[[record]]
compound = "O=C(N/N=C/c1ccc(Cl)cc1)c1[nH]c2ccc(Cl)cc2c1-c1ccccc1"
class_label = "active"

[[record]]
compound = "COc1ccc([C@@H](O)c2cc(-c3ncnc4cc(N5CCOCC5)ccc34)c(F)cc2Cl)nn1"
class_label = "inactive"

[[record]]
compound = "CC(=O)c1cccc(-c2cccc(-c3ccn(CCN4CCOCC4)n3)c2)c1"
class_label = "inactive"

[[record]]
compound = "C[PH+](c1nc2ccccc2nc1[PH+](C)C(C)(C)C)C(C)(C)C.C[PH+](c1nc2ccccc2nc1[PH+](C)C(C)(C)C)C(C)(C)C.[Au+].[Cl-] (stereo unspecified)"
class_label = "active"

[[record]]
compound = "COc1nc(C)cc2c(=O)n(-c3ccccc3)n(CC(O)CN3CCN(c4ccc(Cl)cc4)CC3)c(=O)c12 (stereo unspecified)"
class_label = "inactive"

[[record]]
compound = "COc1cc(/C=C2\\CN(C(=O)CCN3CCC(=NO)CC3)C/C(=C\\c3cc(OC)c(OC)c(OC)c3)C2=O)cc(OC)c1OC"
class_label = "inactive"


====

tested on: CAKI-1 renal; assay: NCI tumour cell line growth inhibition, 48 h
parameter: TGI (µM)

[[record]]
smiles_entry = "CC[C@]1(O)C[C@@H]2CN(CCc3c([nH]c4ccccc34)[C@@](C(=O)OC)(c3cc4c(cc3OC)N(C)[C@H]3[C@@](O)(C(N)=O)[C@H](O)[C@]5(CC)[C@@H]6C[C@@H]6CN6CC[C@]43[C@@H]65)C2)C1"
readout_qualifier = ">"
observed_value = 33.3

[[record]]
smiles_entry = "Cc1ccc(/C=C2/NC(=S)SC2=O)cc1"
readout_qualifier = "="
observed_value = 51.1

[[record]]
smiles_entry = "CSc1nsc(S/C=C\\C(=O)c2ccc(C)cc2)n1"
readout_qualifier = "="
observed_value = 51.5


====

tested on: NCI-H522 lung; test: NCI tumour cell line growth inhibition, 48 h
Item-by-item account of GI50
parameter: GI50

[[record]]
compound = "COC(=O)c1ccc(CN2C(=O)C(Cl)=C(Nc3ccc(OC)c(Cl)c3)C2=O)cc1"
observed_value = "3.84 µM"

[[record]]
compound = "Cc1nn(CNc2ccccc2C(F)(F)F)c(=S)n1/N=C/c1ccc(F)cc1"
observed_value = "> 100 µM"

[[record]]
compound = "CCCCNC(=O)Oc1ccc(/C(=C(/CC)Cc2ccccc2)c2ccc(OCCN3CCCCCC3)cc2)cc1"
observed_value = "20 µM"

[[record]]
compound = "CCCCN(CC)c1ncnc2ccc(Br)cc12"
observed_value = "21 µM"

[[record]]
compound = "CNCCNc1nc2ccccc2c2c(=O)c3cc(F)ccc3sc12"
observed_value = "1.66 µM"

[[record]]
compound = "Oc1c(Cl)cc(Cl)cc1Sc1cc(Cl)cc(Cl)c1O"
observed_value = "2.49 µM"

[[record]]
compound = "C[C@]12CC[C@@H](OC(=O)N(CCCl)N=O)C[C@@H]1CC[C@@H]1[C@@H]2CC[C@]2(C)C(=O)CC[C@@H]12"
observed_value = "9.06 µM"

[[record]]
compound = "COc1cc(/C=C2\\CC3C4CC=C5C[C@@H](O)CC[C@]5(C)C4CC[C@]3(C)C2=O)ccc1OCCCn1ccnc1 (stereo partly drawn)"
observed_value = "17.1 µM"


====

Item-by-item account of TGI
test system: IGROV1 ovarian; assay: NCI tumour cell line growth inhibition, 48 h
*1 amine or outer side, *2 acyl side, *3 side chain or, on linkers, in order; H or OH if unused. Where a SMILES comes first, the peptide text is derived from it. Bridges are numbered along the chain shown (N, C = ends). [ ]: non-standard residue; d: D form. ξ: configuration not given here. X35 = CC[C@H](C)[C@@H](N[*:1])[C@@H](O)CC(=O)O[C@H](C(=O)[C@H](C)C(=O)[*:2])C(C)C; NMeY = CN[C@@H](Cc1ccc(O)cc1)C(=O)O; dNMeL = CN[C@H](CC(C)C)C(=O)O; ξΔPro = O=C(O)C1C=CCN1
parameter: TGI

[[record]]
molecule = "C=C(CCOC)CCC1CCCCC(=C)[C@H]1O (some centres not stated)"
observed_value = "> 100 µM"

[[record]]
molecule = "COc1cc2c3c(c1OC)C1(C=CC(=O)C=C1)CC3NCC2 (configuration not stated)"
observed_value = "> 100 µM"

[[record]]
molecule = "CC(C)(Cc1ccccc1)N1C(=O)N1C(C)(C)Cc1ccccc1"
observed_value = "> 100 µM"

[[record]]
molecule = "CCOC(=O)c1c(-c2ccccc2)c(C(OC(c2ccccc2)c2c(-c3ccccc3)c(C(=O)OCC)n3ccccc23)c2ccccc2)c2ccccn12 (configuration not stated)"
observed_value = "> 100 µM"

[[record]]
molecule = "COC(=O)c1ccc(CN2C(=O)C(Cl)=C(Nc3ccc(OC)c(Cl)c3)C2=O)cc1"
observed_value = "> 50 µM"

[[record]]
molecule = "CC1=CC[C@](C)(O)[C@@]2(C)CC[C@H]3C(=C(C)C)C(=O)C[C@]3(C)C[C@H]12"
observed_value = "> 50 µM"

[[record]]
molecule = "COc1ccc2c(c1)C(=O)C1CCC(=O)N1C2c1ccc2c(c1)OCO2 (configuration not stated)"
observed_value = "32.5 µM"

[[record]]
molecule = "CCCCCCNC(=O)Oc1ccc(/C(=C(/C)Cc2ccc(OC)cc2)c2ccc(OCCN(C)C)cc2)cc1"
observed_value = "9.6 µM"

[[record]]
molecule = "COC(=O)C(CC(=O)c1c[nH]c2ccccc12)c1c[nH]c2ccccc12 (configuration not stated)"
observed_value = "> 10 µM"

[[record]]
molecule = "COC(=O)[C@@H]1C=C[C@H](NC(C)=O)C1"
observed_value = "> 100 µM"

[[record]]
molecule = "CC[C@]1(O)C[C@@H]2CN(CCc3c([nH]c4ccccc34)[C@@](C(=O)OC)(c3cc4c(cc3OC)N(C)[C@H]3[C@@](O)(C(N)=O)[C@H](O)[C@]5(CC)[C@@H]6C[C@@H]6CN6CC[C@]43[C@@H]65)C2)C1"
observed_value = "> 33.3 µM"

[[record]]
molecule = "CC1(O)CCC2(C)C(=O)C1(C)CCC21OCCO1 (configuration not stated)"
observed_value = "> 100 µM"

[[record]]
molecule = "O=C(O)COc1cc(-c2ccccc2)nc2ccccc12"
observed_value = "> 100 µM"

[[record]]
molecule = "Cn1c(=O)n(CC2CS2)c2ccccc21 (configuration not stated)"
observed_value = "> 100 µM"

[[record]]
molecule = "O=[N+]([O-])c1ccc2nc(/C=C(\\O)c3ccc(Cl)cc3)c(/C=C(\\O)c3ccc(Cl)cc3)nc2c1"
observed_value = "> 100 µM"

[[record]]
molecule = "O=C(NCCCCCCO)c1cccc2cc3ccccc3nc12"
observed_value = "35.7 µM"

[[record]]
molecule = "COc1cc2c(cc1O)CCN(C)[C@H]2Cc1ccc(Oc2c(O)c(OC)cc3c2C[C@H]2c4c(c(OC)c(OC)c(OC)c4-3)CCN2C)cc1"
observed_value = "10.7 µM"

[[record]]
molecule = "CC(C(=O)O)c1ccc(-c2ccccc2)c(F)c1 (configuration not stated)"
observed_value = "> 100 µM"

[[record]]
molecule = "O=NN1CCCS1(=O)=O"
observed_value = "> 100 µM"

[[record]]
molecule = "CC(C#N)N(CCc1ccccc1)C(=O)c1ccccc1 (configuration not stated)"
observed_value = "> 100 µM"

[[record]]
molecule = "COc1ccc(C2SCC(=O)N2NC(=O)C(C)Oc2ccc(Cl)cc2Cl)cc1 (configuration not stated)"
observed_value = "> 100 µM"

[[record]]
molecule = "N#Cc1c(C[n+]2ccccc2)c2ccccc2oc1=O"
observed_value = "> 100 µM"

[[record]]
molecule = "C[C@]12CC[C@@H](OC(=O)N(CCCl)N=O)C[C@@H]1CC[C@@H]1[C@@H]2CC[C@]2(C)C(=O)CC[C@@H]12"
observed_value = "24 µM"

[[record]]
molecule = "CC[C@H](C)[C@H]1NC(=O)[C@@H](NC(=O)[C@@H](CC(C)C)N(C)C(=O)C2C=CCN2)[C@@H](C)OC(=O)[C@H](Cc2ccc(OC)cc2)N(C)C(=O)[C@@H]2CCCN2C(=O)[C@H](CC(C)C)NC(=O)[C@@H](C)C(=O)[C@H](C(C)C)OC(=O)C[C@@H]1O (some centres not stated) (H-[ξΔPro][dNMeL]T[X35]LP[NMeY](Me); ester 3-C)"
observed_value = "0.115 µM"

[[record]]
molecule = "NC(=O)c1csc(C2CCC(CO)O2)n1 (configuration not stated)"
observed_value = "> 100 µM"

[[record]]
molecule = "O=C1/C(=C/c2ccc(O)cc2)CCC1CNc1ccccc1 (configuration not stated)"
observed_value = "25.3 µM"

[[record]]
molecule = "Cn1cc(C2=C(c3cn(C)c4cc(N)ccc34)C(=O)NC2=O)c2ccccc21"
observed_value = "17.6 µM"

[[record]]
molecule = "C[C@]12CC[C@H]3[C@@H](CCC4=C(Br)C(=O)C=C[C@@]43O)[C@@H]1CCC2=O"
observed_value = "> 100 µM"

[[record]]
molecule = "CCN1CCCn2c(=O)[nH]c3cc(Br)cc1c32"
observed_value = "> 100 µM"

[[record]]
molecule = "COC(=O)[C@]1(C)CCC[C@@]2(C)[C@@H]3C[C@@H]4[C@H]5C[C@@]3(CC[C@@H]21)C[C@@]45C"
observed_value = "36 µM"

[[record]]
molecule = "CC1=NOC(=O)C1N=Nc1ccc(Br)c(C)c1 (configuration not stated)"
observed_value = "39.4 µM"

[[record]]
molecule = "NC(=S)N/N=C1\\CCCC1C(O)(C(F)(F)Cl)C(F)(F)Cl (configuration not stated)"
observed_value = "> 10 µM"

[[record]]
molecule = "CCOC(=O)c1c(N)sc2c1C(C(=O)OCC)CCC2 (configuration not stated)"
observed_value = "> 100 µM"

[[record]]
molecule = "COC1(OC)C=CC(=O)C=C1"
observed_value = "4.77 µM"

[[record]]
molecule = "COc1ccc(/C=C\\c2cc(OC)c(OC)c(OC)c2)c(NS(=O)(=O)c2ccc(Cl)cc2)c1O"
observed_value = "49.5 µM"

[[record]]
molecule = "COC(=O)/C=c1/c2ccccc2n2c1c1ccccc1[n+]2C"
observed_value = "20.9 µM"

[[record]]
molecule = "COc1cc2oc(-c3ccc4c(c3)OCO4)c(OC)c(=O)c2c(O)c1OC"
observed_value = "> 50 µM"

